// provenance: ChEMBL document CHEMBL2311403

Protocol description: Oral bioavailability in BALB/cAJcl mouse at 10 mg/kg by LC/MS/MS analysis
Assay type: ADME, organism-based
Experimental setup: in vivo
Decision: bioavailability >= 30% yields YES, all other cases yield NO.

Below are worked cases with known answers.
CN[C@@H](C)C(=O)N[C@H](C(=O)N1C[C@H]2CCCN2C[C@H]1C(=O)N[C@H](C)c1ccccc1)C1CCCCC1: YES
CN[C@@H](C)C(=O)N[C@H](C(=O)N1C[C@H]2CCCN2C[C@H]1C(=O)N[C@@H]1CCC(F)(F)c2ccccc21)C1CCCCC1: NO
CN[C@@H](C)C(=O)N[C@H](C(=O)N1C[C@H]2CCCN2C[C@H]1C(=O)N[C@@H]1CCOc2ccccc21)C1CCC(F)(F)CC1: YES
CN[C@@H](C)C(=O)N[C@H](C(=O)N1C[C@H]2CCCN2C[C@H]1C(=O)N[C@@H]1CCOc2ccccc21)C1CCCCC1: YES
CN[C@@H](C)C(=O)N[C@H](C(=O)N1C[C@H]2CC(F)(F)CN2C[C@H]1C(=O)N[C@@H]1CCOc2ccccc21)C1CCC(F)(F)CC1: NO

Exam item: Would you say CN[C@@H](C)C(=O)N[C@H](C(=O)N1C[C@@H]2CCCN2C[C@H]1C(=O)N[C@@H]1CCOc2ccccc21)C1CCC(F)(F)CC1 shows bioavailability at minimum 30%?
Marked response: NO

----------
Overview of recorded microsomal CLint at 20 min, 1 µM for various compounds
Protocol description: Clearance in mouse liver microsomes at 1 umol/l after 20 mins by LC/MS/MS analysis
Write it as a number; the unit µL/min/mg goes unstated.

Here is how some compounds turned out for microsomal CLint at 20 min, 1 µM.
CN[C@@H](C)C(=O)N[C@H](C(=O)N1C[C@@H]2CCCN2C[C@H]1C(=O)N[C@@H]1CCOc2ccccc21)C1CCC(F)(F)CC1: 2
CN[C@@H](C)C(=O)N[C@H](C(=O)N1C[C@H]2CCCN2C[C@H]1C(=O)N[C@H](C)c1ccccc1)C1CCCCC1: 115

Exam item: Give me measured microsomal CLint at 20 min, 1 µM, please, for this compound: CCO[C@@H]1C[C@@H]2CN(C(=O)[C@@H](NC(=O)[C@H](C)NC)C3CCC(F)(F)CC3)[C@H](C(=O)N[C@@H]3CCOc4ccccc43)CN2C1
Marked response: 40

----------
Protocol description: Permeability of the compound by PAMPA
Assay type: ADME
Experimental setup: read-out: permeability
Overview of recorded Papp for various molecules
Write it as a number; the unit ×10⁻⁶ cm/s goes unstated.

CCO[C@@H]1C[C@@H]2CN(C(=O)[C@@H](NC(=O)[C@H](C)NC)C3CCC(F)(F)CC3)[C@H](C(=O)N[C@@H]3CCOc4ccccc43)CN2C1: 4.4

Proceeding to the next molecule to report its Papp.
Exam item: Give me measured Papp, please, for this molecule: CN[C@@H](C)C(=O)N[C@H](C(=O)N1C[C@H]2CCCN2C[C@H]1C(=O)N[C@@H]1CCOc2ccccc21)C1CCC(F)(F)CC1
Marked response: 0.3

----------
Protocol description: Clearance in mouse liver microsomes at 1 umol/l after 20 mins by LC/MS/MS analysis
Test readout: microsomal CLint at 20 min, 1 µM (µL/min/mg)
Write it as a number; the unit µL/min/mg goes unstated.

Here is how some compounds turned out for microsomal CLint at 20 min, 1 µM.
CN[C@@H](C)C(=O)N[C@H](C(=O)N1C[C@H]2CCCN2C[C@H]1C(=O)N[C@@H]1CCC(=O)c2ccccc21)C1CCCCC1: 161
CN[C@@H](C)C(=O)N[C@H](C(=O)N1C[C@H]2CCCN2C[C@H]1C(=O)N[C@@H]1CCCc2ccccc21)C1CCCCC1.Cl.Cl: 232

Proceeding to the next compound to report its microsomal CLint at 20 min, 1 µM.
Exam item: Give me measured microsomal CLint at 20 min, 1 µM, please, for this compound: CN[C@@H](C)C(=O)N[C@H](C(=O)N1C[C@H]2CCCN2C[C@H]1C(=O)N[C@H]1CCCc2ccccc21)C1CCCCC1
Marked response: 239
